The measured values listed here are drawn from ChEMBL document CHEMBL1201862.

tested on: CAKI-1; assay: NCI tumour cell line growth inhibition, 48 h
The source made the active and inactive calls. Cut-off read from the data, not from the text of the source: active = GI50 up to about 1.1 µM and inactive = higher.

MOLECULE: NN=C(CC(O)(C(F)(F)Cl)C(F)(F)Cl)CC(O)(C(F)(F)Cl)C(F)(F)Cl
TESTED ON: CAKI-1
GI50: > 10 µM (inactive)
--
MOLECULE: COc1ccc(Oc2cnn(C(Br)(Br)C(C)=O)c(=O)c2Br)cc1
TESTED ON: CAKI-1
GI50: 10.8 µM (inactive)
--
MOLECULE: O=S(=O)(C1=CC(S(=O)(=O)c2ccccc2)COC1)c1ccccc1 (stereo not given)
TESTED ON: CAKI-1
GI50: > 100 µM (inactive)
--
MOLECULE: O=C1Nc2ccccc2Nc2nc3cccccc-3c21
TESTED ON: CAKI-1
GI50: > 100 µM (inactive)
--
MOLECULE: CC(C)C(Sc1nc(-c2ccccc2)c(-c2ccccc2)[nH]1)C(=O)N/N=C/c1ccc([N+](=O)[O-])cc1 (stereo not given)
TESTED ON: CAKI-1
GI50: 21.1 µM (inactive)
--
MOLECULE: COC(=O)[C@@](NC(=O)OCc1ccccc1)([C@H](C)O)C(F)(F)F
TESTED ON: CAKI-1
GI50: > 100 µM (inactive)
--
MOLECULE: C[C@]12CC[C@H](O)CC1=CC[C@@H]1C2CC[C@]2(C)c3n[nH]nc3CC12 (stereo not given in full)
TESTED ON: CAKI-1
GI50: > 100 µM (inactive)
--
MOLECULE: c1ccc2c(c1)C1CCCCCC21N1CCOCC1 (stereo not given)
TESTED ON: CAKI-1
GI50: > 100 µM (inactive)
--
MOLECULE: CC1(C)N=C2C(=O)c3c([nH]c4ccccc34)[C@]3(C)CCC1CC23 (stereo not given in full)
TESTED ON: CAKI-1
GI50: > 6.25 µM (inactive)
--
MOLECULE: O=C1C(O)=C(CN(CCCl)CCCl)C(=O)c2ccccc21
TESTED ON: CAKI-1
GI50: 39.7 µM (inactive)

----------
tested on: EKVX; assay: NCI tumour cell line growth inhibition, 48 h
Active and inactive are the calls of the source. No stated cut-off is given here; in the data, active = GI50 up to about 1.1 µM and inactive = higher.
Classes used: active, inactive

COMPOUND: Cn1/c(=N\N=C(\CNCCO)[C@@H](O)[C@@H]2OC(c3ccccc3)OC[C@H]2O)sc2ccccc21 (stereo not given in full)
CATEGORY: inactive
//
COMPOUND: COc1cc(C)c(C)c(OC(=O)c2c(C)c(C)c(OC)c(C)c2OC)c1C
CATEGORY: inactive
//
COMPOUND: S=C(N/N=C(/c1ccccc1)c1ccccn1)Nc1ccc(Cl)cc1
CATEGORY: active
//
COMPOUND: CS(=O)(=O)OCCn1cnc2nc(NC(=O)c3ccccc3)[nH]c(=O)c21
CATEGORY: inactive
//
COMPOUND: CC(C)(CCc1nc2ccccc2[nH]1)C(=O)O
CATEGORY: inactive
//
COMPOUND: CN1CCN(C)C12C=c1ccccc1=CC21CC1
CATEGORY: inactive
//
COMPOUND: COC(=O)C1=C(OC(=O)/C(=C/c2ccc(Cl)cc2Cl)c2ccc(Cl)cc2Cl)C(C(=O)OC)[C@@]2(O)[C@@H](C(=O)OC)[C@H](C)C[C@@H]1[C@@H]2C(=O)OC (stereo not given in full)
CATEGORY: inactive
//
COMPOUND: CC(C)c1cc(CN(C)C)c(O)c(C(C)(C)C)c1
CATEGORY: inactive
//
COMPOUND: CCNC(=O)COc1ccc(Br)cc1Br
CATEGORY: inactive
//
COMPOUND: C=C[C@]1(C)CCC2=C(CCC3C2(C)CCC[C@@]3(C)COC(C)=O)C1 (stereo not given in full)
CATEGORY: inactive

----------
tested on: SF-295; assay: NCI tumour cell line growth inhibition, 48 h
The source made the active and inactive calls. Rule as the data show it: active = GI50 up to about 1.1 µM and inactive = higher.

COMPOUND: C=CCOCn1cnc2c(=O)[nH]c(N)nc21
TESTED ON: SF-295
GI50: > 100 µM (inactive)
//
COMPOUND: CCCCOCCOC1=C(Cl)C(=O)c2c(O)ccc(O)c2C1=O
TESTED ON: SF-295
GI50: 1.53 µM (inactive)
//
COMPOUND: O=c1[nH]n(Cc2ccccc2CCl)c2ccc([N+](=O)[O-])cc12
TESTED ON: SF-295
GI50: 37.8 µM (inactive)
//
COMPOUND: COC12CCC(=O)C=C1c1ccccc1N2C(C)=O (stereo unspecified)
TESTED ON: SF-295
GI50: > 100 µM (inactive)
//
COMPOUND: CC(=O)O[C@H]1CC(C)(C)C(=C=C/C(C)=C/C=C/C=C/C=C(C)/C=C2C=C(/C=C/[C@@]34O[C@]3(C)C[C@@H](O)CC4(C)C)C(=O)O/2)[C@](C)(O)C1
TESTED ON: SF-295
GI50: 13.5 µM (inactive)
//
COMPOUND: Fc1ccc(C2SCc3nc4ccccc4n32)cc1 (stereo unspecified)
TESTED ON: SF-295
GI50: 40.7 µM (inactive)
//
COMPOUND: CCOC(=O)N[C@@H]1C2CC(=O)C(O2)[C@@H]1OC (stereo partly specified)
TESTED ON: SF-295
GI50: > 100 µM (inactive)
//
COMPOUND: CCOC(=O)c1cc(Br)c(-c2onc(C)c2Br)[nH]1
TESTED ON: SF-295
GI50: 43.1 µM (inactive)
//
COMPOUND: Cc1cc[n+]2c(c1)-c1cc(C)cc[n+]1CC2
TESTED ON: SF-295
GI50: > 100 µM (inactive)
//
COMPOUND: CC#CC#C/C=C1/C=CC2(CCCCO2)O1 (stereo unspecified)
TESTED ON: SF-295
GI50: > 100 µM (inactive)
//
COMPOUND: COc1cc(CC(C(=O)O)C(=O)O)c(OC)cc1CC(C(=O)O)C(=O)O
TESTED ON: SF-295
GI50: > 100 µM (inactive)

----------
system: NCI-H460; experiment: NCI tumour cell line growth inhibition, 48 h
Active and inactive are the calls of the source. No stated cut-off is given here; in the data, active = GI50 up to about 1.1 µM and inactive = higher.
Classes used: t for active, f for inactive

COMPOUND: Cc1ccc(O)c(-c2cc(-c3ccccc3)nc(/N=C\c3ccccc3)n2)c1
CATEGORY: f

COMPOUND: O=[N+]([O-])c1ccc(Cl)c(C2CC(c3cccc4ccccc34)=Nc3ccccc3[S+]2[O-])c1 (stereo not drawn)
CATEGORY: f

COMPOUND: CC(C)=CC1C(COC(=O)c2ccccc2Cl)C1(C)C (stereo not drawn)
CATEGORY: f

COMPOUND: O=C(O)c1cccc(S(=O)(=O)NN2C(=O)CSC2c2ccc(Cl)cc2Cl)c1 (stereo not drawn)
CATEGORY: f

COMPOUND: COc1ccc2c(c1)CC[C@@H]1C2CC[C@]2(C)C(=O)N(C)C(=O)CC12 (stereo partly drawn)
CATEGORY: f

COMPOUND: C=CC[C@H](C)CCC(=O)N1[C@H]2CC3CC[C@@]2(CS1(=O)=O)C3(C)C
CATEGORY: f

COMPOUND: COc1ccc(C2OC(=O)c3ccc4ccccc4c32)c(C)c1 (stereo not drawn)
CATEGORY: f

COMPOUND: N#CC1=C(c2ccccc2)C(O)(c2ccccc2)NC1=O (stereo not drawn)
CATEGORY: f

COMPOUND: Cc1cn(C(=O)NC23CC4CC(CC(C4)C2)C3)c(=O)[nH]c1=O
CATEGORY: f

COMPOUND: N#CC(C#N)=CNCCN1CCN(C=C(C#N)C#N)CC1
CATEGORY: f

COMPOUND: CN(C)CN(C)c1nc(N(C)C)nc(N(C)CN(C)C)n1
CATEGORY: f

COMPOUND: Cc1cc(O)c2c(c1)C(C1c3cccc(O)c3C(=O)c3c(O)cc(C)cc31)c1cccc(O)c1C2=O (stereo not drawn)
CATEGORY: t

COMPOUND: CCCCN(C)CC(C(C)=O)C(c1ccccc1)c1c(O)c2ccccc2oc1=O (stereo not drawn)
CATEGORY: f

COMPOUND: O=C(O)/C(Cl)=C(\Cl)C(=O)Nc1ccccc1
CATEGORY: f

COMPOUND: Nc1nc(Cl)cc(NCCCCO)n1
CATEGORY: f

COMPOUND: CC1=C(C(=O)NNC(=O)c2ccccc2O)CC(C(=O)NNC(=O)c2ccccc2O)=C(C)N1
CATEGORY: t

COMPOUND: Cc1cc(=O)n2nc(SCc3ccccc3)sc2n1
CATEGORY: f

COMPOUND: COc1c(OC(C)=O)cc2c(OC(C)=O)c1CC(C)CC(OC)C(O)C(C)/C=C(\C)C(OC(N)=O)C(OC)/C=C\C=C(/C)C(=O)N2 (stereo not drawn)
CATEGORY: f

COMPOUND: NCCCN(CCCN)CCCNCc1c2ccccc2c(CNCCCN(CCCN)CCCN)c2ccccc12
CATEGORY: f

COMPOUND: CCC(=O)NCC1CCCN2CCCCC12 (stereo not drawn)
CATEGORY: f

COMPOUND: O=c1oc2ccccc2cc1-c1nc2ccccc2s1
CATEGORY: f

COMPOUND: Nc1ccc2c(c1)C(=O)c1c(F)cccc1-2
CATEGORY: f

COMPOUND: CS(=O)(=O)OCCn1cnc2nc(NC(=O)c3ccccc3)[nH]c(=O)c21
CATEGORY: f
